tested on: rat brain homogenates; experiment: Inhibition of lipid peroxidation in rat brain homogenates (TBARS assay); assay type: biochemical; conditions: TBARS, read-out: concentration that inhibited oxidative stress by 50%
measuredProperty: IC50 (µM)

# compound, IC50 / µM
rows = [
    ("Cc1c(C)c2c(c(C)c1O)CCC(C)(CC[P+](c1ccccc1)(c1ccccc1)c1ccccc1)O2 (stereo not drawn)", 0.21),
]

I = Cc1c(C)c2c(c(C)c1O)CC[C@@](C)(CCC[C@H](C)CCC[C@H](C)CCCC(C)C)O2
II = BrCCCC[P+](c1ccccc1)(c1ccccc1)c1ccccc1.[Br-] [BrBTP, bromobutyltriphenylphosphonium bromide]
For this pair, I and II , which shows a numerically higher IC50? Mark your answer with the label of the selected entry.
II

meta.source: patent US7232809B2
